This collection of values is drawn from patent EP2931723B1.

system: E. coli JMI 10770; test: MIC, antibacterial and synergistic activity; type: cell-based; settings: Escherichia coli, JMI10770; E. coli JMI 10770 (CTX-M15 (Hyper ESBL)); substance alone
Entries and their MIC
Measurement Label: MIC (µg/mL)

[
  {
    "Compound": "CC(C)(O/N=C(\\C(=O)N[C@@H]1C(=O)N2C(C(=O)[O-])=C(C[n+]3ccccc3)CS[C@H]12)c1csc(N)n1)C(=O)O [Ceftazidime, ceftazidime, reference compound]",
    "Measurement Unit": "µg/mL",
    "Qualifier Sign": "=",
    "Measured Number": 64
  },
  {
    "Compound": "CCC(=O)NNC(=O)[C@@H]1CC[C@@H]2CN1C(=O)N2OS(=O)(=O)O",
    "Measurement Unit": "µg/mL",
    "Qualifier Sign": ">",
    "Measured Number": 16
  },
  {
    "Compound": "C[C@H]1[C@H](NC(=O)/C(=N\\OC(C)(C)C(=O)O)c2csc(N)n2)C(=O)N1S(=O)(=O)O [Aztreonam, aztreonam, reference compound]",
    "Measurement Unit": "µg/mL",
    "Qualifier Sign": "=",
    "Measured Number": 64
  }
]
